The origin of these recorded values is ChEMBL document CHEMBL5303304.

system: Fibroblast; test: Incucyte cell viability with human fibroblast; assay type: toxicity, cell-based; conditions: 24 h, 10 µM, compound concentration 10 uM, replicate number 1; note: unitless GR value; below 1 slowed growth and below 0 cell loss
Overview of recorded Growth Rate for various compounds

{"COMPOUND": "COC[C@@H](C)N[C@H]1CC[C@H](Nc2cc(-c3cccc(NCC4(C#N)CCOCC4)n3)c(Cl)cn2)CC1", "Growth Rate": -0.09}
{"COMPOUND": "CC(C)NC(=O)[C@H]1CCC[C@H]1Nc1nc(Nc2ccc(C(=O)N(C)C3CCN(C)CC3)cc2)ncc1Cl", "Growth Rate": 0.54}
{"COMPOUND": "CN(C(=O)c1ccccc1)c1ccc2c(c1)nc(NC(=O)c1ccc(Br)s1)n2CCC(N)=O", "Growth Rate": 0.96}
{"COMPOUND": "c1ccc2c(-c3coc4cc(-c5ccc(N6CCNCC6)cc5)cnc34)ccnc2c1", "Growth Rate": 0.1}
{"COMPOUND": "Cc1nsc(Nc2cnc(C(F)(F)F)cn2)c1C(=O)Nc1ccc(O[C@H]2CCCN(CC(F)(F)F)C2)nc1", "Growth Rate": -0.23}
{"COMPOUND": "CCN1CCN(Cc2ccc(C(=O)Nc3ccc(C)c(Oc4ccc5c(c4)CC(=O)N5)c3)cc2C(F)(F)F)CC1.Cl.Cl", "Growth Rate": -0.38}
{"COMPOUND": "NCCCNCCCCNCCC(=O)NCCCCCNC(=O)[C@H](CC(N)=O)NC(=O)Cc1ccc(O)cc1O [JORO SPIDER TOXIN 3]", "Growth Rate": 0.49}
{"COMPOUND": "CN(CCCCCCC1=C(c2cc(F)cc(F)c2)CCCc2cc(O)ccc21)CCCCS(=O)(=O)CCCC(F)(F)F", "Growth Rate": -0.77}
{"COMPOUND": "Fc1ccc(-c2nc(-c3ccc4ccccc4c3F)[nH]c2-c2ccncc2)cc1", "Growth Rate": 0.76}
{"COMPOUND": "CC[C@H](Nc1c(C#N)c(-c2ccc(-c3cccc(C)c3F)cc2)nc2cnccc12)C(=O)O [BAY-0361]", "Growth Rate": 0.8}
{"COMPOUND": "CC(C)CNc1nc(N2CCN(CC3CCCOC3)CC2)ncc1C(=O)NCc1ccccc1 (centres undefined)", "Growth Rate": -0.8}
{"COMPOUND": "C=C(F)C(=O)N1CCN(c2nc(OC[C@@H]3CCCN3C)nc3c2CCN(c2cccc4cccc(Cl)c24)C3)C[C@@H]1CC#N [ADAGRASIB]", "Growth Rate": -0.3}
{"COMPOUND": "O=C(Nc1cc(C(F)(F)F)cc(C(F)(F)F)c1)c1cc(Cl)ccc1O [IMD-0354]", "Growth Rate": 0.42}
{"COMPOUND": "C=C(C)[C@H]1CN[C@H](C(=O)O)[C@H]1CC(=O)O [KAINIC ACID]", "Growth Rate": 0.76}
{"COMPOUND": "CN1C(=O)Cc2ccc(-c3ccc(C[C@@H](C#N)NC(=O)[C@H]4N[C@@H]5CC[C@H]4C5)c(F)c3)cc21", "Growth Rate": 0.86}
{"COMPOUND": "N#Cc1ccnc(Nc2cc(C3CCN(C4COC4)CC3)cc(N3CCC(F)(F)C3)n2)c1", "Growth Rate": -0.29}
{"COMPOUND": "Cc1csc(-c2nnc(Nc3ccc(Oc4ncccc4-c4ccnc(N)n4)cc3)c3ccccc23)c1 [AMG-900]", "Growth Rate": 0.75}
{"COMPOUND": "Cc1cc(NC(=O)c2cccc(NC(=O)/C=C/CN(C)C)c2)ccc1Nc1nccc(-c2cccnc2)n1", "Growth Rate": -0.22}
{"COMPOUND": "O=C(NCCN1CCOCC1)c1ccc2nn(CCOc3ccc(Cl)cc3)cc2c1", "Growth Rate": 0.92}
{"COMPOUND": "Cn1cc(-c2ccc(-c3cncc(Cl)c3N3CCC4(CCNC4=O)CC3)cc2)cn1", "Growth Rate": 0.49}
{"COMPOUND": "CC[C@H]1[C@@H](O)[C@@H]2[C@H](CC[C@]3(C)[C@@H]([C@H](C)CCC(=O)O)CC[C@@H]23)[C@@]2(C)CC[C@@H](O)C[C@@H]12 [OBETICHOLIC ACID]", "Growth Rate": 0.9}
{"COMPOUND": "COc1cc(CN(CCN)C(=O)N[C@@H](C)c2ccccc2)ccc1OCc1ccccc1.Cl", "Growth Rate": 0.72}
{"COMPOUND": "Clc1cccc(Nc2nccc(NCCCN3CCOCC3)n2)c1", "Growth Rate": 0.48}
{"COMPOUND": "O=C(Cc1ccccc1)Nc1nnc(N2CC[C@@H]3[C@H]2CN3c2cccnn2)s1 [A-426]", "Growth Rate": 0.73}
{"COMPOUND": "Cn1c(C(=O)N[C@@H](CO)c2ccc(C(=O)O)cc2)cc2cc(Cl)ccc21", "Growth Rate": 1}
{"COMPOUND": "O=C(O)/C=C/c1ccc(Cn2ccnc2)cc1 [OZAGREL]", "Growth Rate": 0.78}
{"COMPOUND": "CCCCCCCC/C=C\\CCCCCCCC(=O)NCc1ccc(O)c(OC)c1 [OLVANIL]", "Growth Rate": 0.91}
{"COMPOUND": "CCCCCNC(=O)N1CCC(CN(Cc2ccc(Cl)cc2)Cc2ccc([N+](=O)[O-])s2)C1 (centres undefined) [SR9011]", "Growth Rate": 0.54}
{"COMPOUND": "c1ccc(C2CCN(c3cnc4c(N5CCOCC5)nccn34)CC2)cc1", "Growth Rate": 1}
{"COMPOUND": "CCOC(=O)/N=C(\\N)c1ccc(OCc2cccc(COc3ccc(C(C)(C)c4ccc(OC(=O)OCC)cc4)cc3)c2)cc1", "Growth Rate": 0.41}
{"COMPOUND": "O=C(Cc1ccccc1[N+](=O)[O-])Nc1ccc(-c2ccc(C(O)(C(F)(F)F)C(F)(F)F)cc2F)cc1", "Growth Rate": -0.02}
{"COMPOUND": "O=c1cc(-c2ccccc2)oc2c1ccc1ccccc12 [ALPHA-NAPHTHOFLAVONE]", "Growth Rate": 0.65}
{"COMPOUND": "O=C(Nc1cccc(C(F)(F)F)c1)c1cc(Cl)ccc1O", "Growth Rate": 0.08}
{"COMPOUND": "COc1cc(C(=O)NC2CCN(C)CC2)ccc1Nc1ncc(C(F)(F)F)c(NCc2ccc(C)cc2N(C)S(C)(=O)=O)n1.O=CO.O=CO", "Growth Rate": -0.58}

###

system: U2OS; experiment: Incucyte cell viability with U2OS; format: toxicity, cell-based; settings: human, 24 h, 10 µM, compound concentration 10 uM, replicate number 2; note: unitless GR value; below 1 slowed growth and below 0 cell loss
Numbered stars: 1 amine (or outer) side, 2 acyl side, 3 side chain; on linkers, the order of the positions; unused ones are H or OH. Bridge positions count the residues as written; N and C are the ends. Square brackets hold non-standard residues; d marks the D form. Peptide text beside a SMILES is read from it. I, II: the chains in the order shown. Hexamethylenediamine = C(CCCN[*:2])CCN[*:1]; Dip = N[C@H](C(=O)O)C(c1ccccc1)c1ccccc1; Chg = N[C@H](C(=O)O)C1CCCCC1; NMeA = CN[C@@H](C)C(=O)O
Overview of recorded Growth Rate for various molecules

{"MOLECULE": "O=C(Nc1ccc(Cl)c(-c2ccccn2)c1)c1cccc(COc2ccc(Br)cc2CNCCO)c1.O=CO", "Growth Rate": 0.33}
{"MOLECULE": "CN(C)[C@H]1CCc2nc(NC(=O)c3cccc(Cn4cc(-c5ccc(C#N)cc5)cn4)c3)sc2C1.O=C(O)C(F)(F)F", "Growth Rate": 0.75}
{"MOLECULE": "CC1(C)OC(=O)c2ccc(Nc3ncc(-c4nnco4)c(N[C@H](CO)c4ccccc4)n3)cc21", "Growth Rate": 0.62}
{"MOLECULE": "c1cnc2cc3c(cc2n1)[C@@H]1CNC[C@H]3C1", "Growth Rate": 0.9}
{"MOLECULE": "Nc1ccc(S(=O)(=O)Nc2ccnn2-c2ccccc2)cc1", "Growth Rate": 0.91}
{"MOLECULE": "COc1cc(-c2nn([C@H]3CC[C@H](N4CCN(C(C)=O)CC4)CC3)c3ncnc(N)c23)ccc1NC(=O)c1cc2ccccc2n1C", "Growth Rate": 0.91}
{"MOLECULE": "CCCCCCCC/C=C\\CCCCCCCC(=O)NCCO [OLEOYLETHANOLAMIDE]", "Growth Rate": 0.76}
{"MOLECULE": "COC(=O)c1ccc2c(c1)NC(=O)/C2=C(\\Nc1ccc(N(C)C(=O)CN2CCN(C)CC2)cc1)c1ccccc1", "Growth Rate": 0.99}
{"MOLECULE": "CCc1cc2c(cc1N1CCC(N3CCOCC3)CC1)C(C)(C)c1[nH]c3cc(C#N)ccc3c1C2=O", "Growth Rate": 0.94}
{"MOLECULE": "CCS(=O)(=O)Nc1cccc(Oc2cncc(Nc3ccc(I)cc3F)c2C(N)=O)c1", "Growth Rate": 0.98}
{"MOLECULE": "O=C1NC(=Nc2c(Cl)cccc2Cl)S/C1=C\\c1ccc2nccnc2c1", "Growth Rate": 0.75}
{"MOLECULE": "COC(=O)c1cc2c(cn1)[nH]c1ccccc12", "Growth Rate": 0.97}
{"MOLECULE": "FC(F)(F)c1ccc(CNc2ccc(Cc3c[nH]c4ncc(Cl)cc34)cn2)cn1", "Growth Rate": 0.98}
{"MOLECULE": "C=CC(=O)Nc1cccc(C(=O)Nc2ccc(NC(=O)c3cccc(-c4ccn[nH]4)n3)cc2)c1", "Growth Rate": 0.92}
{"MOLECULE": "COc1cc(-c2cc(-c3cccc(O)c3)cnc2N)cc(OC)c1OC", "Growth Rate": 0.86}
{"MOLECULE": "CN(C)C/C=C/C(=O)Nc1ccc(C(=O)Nc2cccc(Nc3ncc(Cl)c(-c4c[nH]c5ccccc45)n3)c2)cc1", "Growth Rate": 0.28}
{"MOLECULE": "Cn1ncnc1COc1nn2c(-c3cc(F)ccc3F)nnc2cc1C(C)(C)C", "Growth Rate": 0.76}
{"MOLECULE": "O=C1NCCc2c(OCCCCN3CCCCC3)cccc21", "Growth Rate": 0.83}
{"MOLECULE": "CN(c1ccc(C(F)(F)F)cc1)S(=O)(=O)c1ccc(C(=O)Nc2nc(-c3ccccn3)cs2)cc1", "Growth Rate": 1}
{"MOLECULE": "COc1cc2c(NC3CCN(C(C)C)CC3)nc(C3CCCCC3)nc2cc1OCCCN1CCCC1", "Growth Rate": -0.23}
{"MOLECULE": "Cc1cc(SCc2sc(-c3ccc(C(F)(F)F)cc3)nc2C)ccc1OCC(=O)O", "Growth Rate": 0.98}
{"MOLECULE": "NC(=O)c1sc2nc(N3CCC(NC[C@H](O)c4ccccn4)CC3)cc(C(F)(F)F)c2c1N", "Growth Rate": -0.15}
{"MOLECULE": "Cc1csc(-c2nnc(Nc3ccc(Oc4ncccc4-c4ccnc(N)n4)cc3)c3ccccc23)c1", "Growth Rate": 0.41}
{"MOLECULE": "Cc1cc(C2CCCNC2)ccc1Nc1ncc(Br)c(NCc2cccc3c2C(C)(C)C(=O)N3)n1 (stereo not drawn)", "Growth Rate": 0.37}
{"MOLECULE": "COc1cc(C(=O)O)ncc1C#Cc1ccccc1NS(=O)(=O)c1cccc2c(N(C)C)ccnc12", "Growth Rate": 0.9}
{"MOLECULE": "CC1CCN(c2ccnc(NCc3cn(C)cn3)n2)CC1", "Growth Rate": 0.84}
{"MOLECULE": "CC(=O)N1CCN([C@H]2CCC[C@@H](NC(=O)c3cc4c(F)ccc(C)c4[nH]3)C2)CC1.O=C(O)C(F)(F)F", "Growth Rate": 0.88}
{"MOLECULE": "CN[C@@H](C)C(=O)N[C@H](C(=O)N1CCC[C@H]1C(=O)N[C@H](C(=O)NCCCCCCNC(=O)[C@@H](NC(=O)[C@@H]1CCCN1C(=O)[C@@H](NC(=O)[C@H](C)NC)C1CCCCC1)C(c1ccccc1)c1ccccc1)C(c1ccccc1)c1ccccc1)C1CCCCC1 (I: H-[NMeA][Chg]P[Dip] / II: H-[NMeA][Chg]P[Dip]; linker I:C-II:C via Hexamethylenediamine)", "Growth Rate": -0.21}
{"MOLECULE": "CC(C)N1CCN(Cc2cnc(-c3cc(-c4cccc5[nH]ccc45)cc4[nH]ncc34)o2)CC1", "Growth Rate": 0.6}
{"MOLECULE": "Fc1ccc(Cl)cc1-c1nc(Nc2ccncc2)c2nccnc2n1", "Growth Rate": 0.75}
{"MOLECULE": "Cc1cn(CCN2CCN(c3ccccc3-c3cc(C#N)cc(C(=O)NCCCN4CCCC4)c3)CC2)c2ccccc12", "Growth Rate": -0.74}
{"MOLECULE": "Nc1ncnc2c1c(I)cn2[C@@H]1O[C@H](CO)[C@@H](O)[C@H]1O", "Growth Rate": -0.18}
{"MOLECULE": "Cn1cc(-c2ccc(N(C(=O)NCc3ccccc3)[C@H]3CC[C@H](Nc4ccc(C#N)cn4)CC3)cc2)ccc1=O", "Growth Rate": -0.05}
